assay: Ratio of drug level in CSF to plasma in Sprague-Dawley rat at 30 mg/kg after 2 hrs; assay type: ADME, organism-based; design: dose 30 mg/kg
property: Kp at 2 h
API note: the answer field is a bare number with no unit suffix.

Assign Kp at 2 h to the following record: Cc1ccc(-n2nccn2)c(C(=O)N2C3CCC2CN(c2ncc4ccc(F)cc4n2)CC3)c1 (single isomer, unassigned; 8a) 0.007

* * *

target: Orexin/Hypocretin receptor type 1 (Homo sapiens, UniProt O43613); assay: Antagonist activity at OX1R by FLIPR assay
Sequence (O43613 whole entry): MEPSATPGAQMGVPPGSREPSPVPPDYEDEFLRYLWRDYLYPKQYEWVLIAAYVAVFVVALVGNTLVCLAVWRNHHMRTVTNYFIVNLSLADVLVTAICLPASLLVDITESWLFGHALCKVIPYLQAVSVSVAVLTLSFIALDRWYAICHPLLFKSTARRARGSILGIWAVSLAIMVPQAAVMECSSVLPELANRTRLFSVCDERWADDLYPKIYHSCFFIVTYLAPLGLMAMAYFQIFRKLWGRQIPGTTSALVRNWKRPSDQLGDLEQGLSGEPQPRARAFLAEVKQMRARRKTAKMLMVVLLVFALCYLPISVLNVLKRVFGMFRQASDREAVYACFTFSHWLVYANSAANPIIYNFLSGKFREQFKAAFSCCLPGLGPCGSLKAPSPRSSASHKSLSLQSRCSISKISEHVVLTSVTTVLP
property: pIC50
pIC50 field: float, defined as -log10 of concentration (mol/L).

Assign pIC50 to the following record: Cc1ccc(-n2nccn2)c(C(=O)N2C[C@@H]3CC[C@H]2CCN3c2ncc3ccc(F)cc3n2)c1 6.10

Assign pIC50 to the following record: Cc1ccc(-n2nccn2)c(C(=O)N2C[C@H]3CC[C@@H]2CCN3c2ncc3ccc(F)cc3n2)c1 6.90

Assign pIC50 to the following record: Cc1ccc(-n2nccn2)c(C(=O)N2C3CCC2CN(c2ncc4ccc(F)cc4n2)CC3)c1 (single isomer, unassigned; 8a) 7.01

Assign pIC50 to the following record: Cc1ccc(-n2nccn2)c(C(=O)N2CC[C@@H]3CC[C@H]2CN3c2ncc3ccc(F)cc3n2)c1 5.64

Assign pIC50 to the following record: Cc1ccc(-n2nccn2)c(C(=O)N2C3CCC2CN(c2ncc4ccc(F)cc4n2)CC3)c1 (single isomer, unassigned; 8b) 7.00

Assign pIC50 to the following record: Cc1ccc(-n2nccn2)c(C(=O)N2CCC3CCC(C2)N3c2ncc3ccc(F)cc3n2)c1 (racemic) 7.14

Assign pIC50 to the following record: Cc1ccc(-n2nccn2)c(C(=O)N2C[C@@H]3CC[C@H]2CN(c2ncc4ccc(F)cc4n2)C3)c1 (single isomer, unassigned) 7.34

Assign pIC50 to the following record: Cc1ccc(-n2nccn2)c(C(=O)N2C[C@H]3CC[C@@H]2CN(c2ncc4ccc(F)cc4n2)C3)c1 (single isomer, unassigned) 6.98

Assign pIC50 to the following record: Cc1ccc(-n2nccn2)c(C(=O)N2CC[C@H]3CC[C@@H]2CN3c2ncc3ccc(F)cc3n2)c1 5.80

* * *

test: Cmax in Sprague-Dawley rat at 10 mg/kg, po and 2 mg/kg, iv; assay type: ADME, organism-based; conditions: in vivo
property: Cmax (nM)
Hi! Could you send only the number? It should be in nM, unit omitted.

Assign Cmax to the following record: Cc1ccc(-n2nccn2)c(C(=O)N2C3CCC2CN(c2ncc4ccc(F)cc4n2)CC3)c1 (single isomer, unassigned; 8a) 570

* * *

assay: Drug level in Sprague-Dawley rat CSF at 30 mg/kg after 2 hrs; format: ADME, organism-based, Cerebrospinal fluid; design: dose 30 mg/kg; settings: read-out: Drug uptake
property: concentration at 2 h
Kindly report the value followed by its unit.

Assign concentration at 2 h to the following record: Cc1ccc(-n2nccn2)c(C(=O)N2C3CCC2CN(c2ncc4ccc(F)cc4n2)CC3)c1 (single isomer, unassigned; 8a) 23 nM

* * *

test: Drug level in Sprague-Dawley rat plasma at 30 mg/kg after 2 hrs; assay type: ADME, organism-based; parameters: dose 30 mg/kg; conditions: read-out: Drug uptake
property: concentration at 2 h (µM)
Hi! Could you send only the number? It should be in µM, unit omitted.

Assign concentration at 2 h to the following record: Cc1ccc(-n2nccn2)c(C(=O)N2C3CCC2CN(c2ncc4ccc(F)cc4n2)CC3)c1 (single isomer, unassigned; 8a) 3.1

* * *

test: Drug level in Sprague-Dawley rat plasma at 10 mg/kg after 2 hrs; assay type: ADME, organism-based; design: dose 10 mg/kg; conditions: read-out: Drug uptake
property: concentration at 2 h
Kindly report the value followed by its unit.

Assign concentration at 2 h to the following record: Cc1ccc(-n2nccn2)c(C(=O)N2C3CCC2CN(c2ncc4ccc(F)cc4n2)CC3)c1 (single isomer, unassigned; 8a) 1100 nM

* * *

test system: Rattus norvegicus; test: AUC (0 to 24 hrs) in Sprague-Dawley rat at 10 mg/kg, po and 2 mg/kg, iv; assay type: ADME, organism-based, Plasma; conditions: in vivo
Exercise: state measured AUC for each of the molecules provided.
Hi! Could you send only the number? It should be in µM·h, unit omitted.

Assign AUC to the following record: Cc1ccc(-n2nccn2)c(C(=O)N2CCCN(c3ncc4ccccc4n3)CC2)c1 0.19

Assign AUC to the following record: Cc1ccc(-n2nccn2)c(C(=O)N2C3CCC2CN(c2ncc4ccc(F)cc4n2)CC3)c1 (single isomer, unassigned; 8a) 1.57

* * *

test: Half life in Sprague-Dawley rat at 10 mg/kg, po and 2 mg/kg, iv; format: ADME, organism-based; conditions: in vivo
property: half-life (h)
Hi! Could you send only the number? It should be in h, unit omitted.

Assign half-life to the following record: Cc1ccc(-n2nccn2)c(C(=O)N2C3CCC2CN(c2ncc4ccc(F)cc4n2)CC3)c1 (single isomer, unassigned; 8a) 1

* * *

Exercise: state measured AUC for each of the compounds provided.
system: Canis familiaris; experiment: AUC (0 to 24 hrs) in dog at 3 mg/kg, po and 0.125 mg/kg, iv; assay type: ADME, organism-based, Canis lupus familiaris, Plasma; conditions: in vivo
Hi! Could you send only the number? It should be in µM·h, unit omitted.

Assign AUC to the following record: Cc1ccc(-n2nccn2)c(C(=O)N2C3CCC2CN(c2ncc4ccc(F)cc4n2)CC3)c1 (single isomer, unassigned; 8a) 14.1

Assign AUC to the following record: Cc1ccc(-n2nccn2)c(C(=O)N2CCCN(c3ncc4ccccc4n3)CC2)c1 0.44

* * *

assay: Drug level in Sprague-Dawley rat plasma at 100 mg/kg after 2 hrs administered in PEG400; format: ADME, organism-based; design: dose 100 mg/kg; settings: read-out: Drug uptake
property: concentration at 2 h (µM)
Hi! Could you send only the number? It should be in µM, unit omitted.

Assign concentration at 2 h to the following record: Cc1ccc(-n2nccn2)c(C(=O)N2C3CCC2CN(c2ncc4ccc(F)cc4n2)CC3)c1 (single isomer, unassigned; 8a) 12.5

* * *

assay: Oral bioavailability in Sprague-Dawley rat at 10 mg/kg; format: ADME, organism-based; details: in vivo
property: bioavailability (%)
Hi! Could you send only the number? It should be in %, unit omitted.

Assign bioavailability to the following record: Cc1ccc(-n2nccn2)c(C(=O)N2C3CCC2CN(c2ncc4ccc(F)cc4n2)CC3)c1 (single isomer, unassigned; 8a) 14

* * *

experiment: Half life in dog at 3 mg/kg, po and 0.125 mg/kg, iv; format: ADME, organism-based, Canis lupus familiaris; conditions: in vivo
property: half-life

Assign half-life to the following record: Cc1ccc(-n2nccn2)c(C(=O)N2C3CCC2CN(c2ncc4ccc(F)cc4n2)CC3)c1 (single isomer, unassigned; 8a) 1.8 h

* * *

experiment: Ratio of drug level in CSF to plasma in Sprague-Dawley rat at 60 mg/kg after 1 hr; assay type: ADME, organism-based; set-up: dose 60 mg/kg
property: Kp at 1 h
API note: the answer field is a bare number with no unit suffix.

Assign Kp at 1 h to the following record: Cc1ccc(-n2nccn2)c(C(=O)N2C3CCC2CN(c2ncc4ccc(F)cc4n2)CC3)c1 (single isomer, unassigned; 8a) 0.011

* * *

experiment: Drug level in Sprague-Dawley rat plasma at 60 mg/kg after 1 hr; type: ADME, organism-based; set-up: dose 60 mg/kg; conditions: read-out: Drug uptake
property: concentration at 1 h (µM)
Hi! Could you send only the number? It should be in µM, unit omitted.

Assign concentration at 1 h to the following record: Cc1ccc(-n2nccn2)c(C(=O)N2C3CCC2CN(c2ncc4ccc(F)cc4n2)CC3)c1 (single isomer, unassigned; 8a) 14.6

* * *

Target: Orexin receptor type 2 (Homo sapiens, UniProt O43614)
Sequence (O43614 whole entry): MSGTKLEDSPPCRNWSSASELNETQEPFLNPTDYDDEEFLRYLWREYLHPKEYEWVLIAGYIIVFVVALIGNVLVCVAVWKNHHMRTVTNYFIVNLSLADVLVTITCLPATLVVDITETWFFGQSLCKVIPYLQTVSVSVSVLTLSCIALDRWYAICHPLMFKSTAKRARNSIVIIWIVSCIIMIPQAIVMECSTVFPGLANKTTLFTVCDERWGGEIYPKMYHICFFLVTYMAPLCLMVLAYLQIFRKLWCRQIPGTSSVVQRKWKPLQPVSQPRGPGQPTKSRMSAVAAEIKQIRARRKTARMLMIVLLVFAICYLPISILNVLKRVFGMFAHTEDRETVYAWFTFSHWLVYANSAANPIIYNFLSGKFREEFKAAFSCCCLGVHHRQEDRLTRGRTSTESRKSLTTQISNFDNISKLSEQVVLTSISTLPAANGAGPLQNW
Experiment: Antagonist activity at OX2R by FLIPR assay
property: IC50 (nM)
Hi! Could you send only the number? It should be in nM, unit omitted.

Given Cc1ccc(-n2nccn2)c(C(=O)N2C[C@H]3CC[C@@H]2CN(c2ncc4ccc(F)cc4n2)C3)c1 (single isomer, unassigned) , report its IC50 on Orexin receptor type 2 (Homo sapiens, UniProt O43614). 370

Given Cc1ccc(-n2nccn2)c(C(=O)N2C[C@@H]3CC[C@H]2CN(c2ncc4ccc(F)cc4n2)C3)c1 (single isomer, unassigned) , report its IC50 on Orexin receptor type 2 (Homo sapiens, UniProt O43614). 790

Given Cc1ccc(-n2nccn2)c(C(=O)N2C[C@@H]3CC[C@H]2CCN3c2ncc3ccc(F)cc3n2)c1 , report its IC50 on Orexin receptor type 2 (Homo sapiens, UniProt O43614). 740

Given Cc1ccc(-n2nccn2)c(C(=O)N2CC[C@@H]3CC[C@H]2CN3c2ncc3ccc(F)cc3n2)c1 , report its IC50 on Orexin receptor type 2 (Homo sapiens, UniProt O43614). 1450

Given Cc1ccc(-n2nccn2)c(C(=O)N2C3CCC2CN(c2ncc4ccc(F)cc4n2)CC3)c1 (single isomer, unassigned; 8a) , report its IC50 on Orexin receptor type 2 (Homo sapiens, UniProt O43614). 136

Given Cc1ccc(-n2nccn2)c(C(=O)N2C3CCC2CN(c2ncc4ccc(F)cc4n2)CC3)c1 (single isomer, unassigned; 8b) , report its IC50 on Orexin receptor type 2 (Homo sapiens, UniProt O43614). 150

Given Cc1ccc(-n2nccn2)c(C(=O)N2CCC3CCC(C2)N3c2ncc3ccc(F)cc3n2)c1 (racemic) , report its IC50 on Orexin receptor type 2 (Homo sapiens, UniProt O43614). 175

Given Cc1ccc(-n2nccn2)c(C(=O)N2C[C@H]3CC[C@@H]2CCN3c2ncc3ccc(F)cc3n2)c1 , report its IC50 on Orexin receptor type 2 (Homo sapiens, UniProt O43614). 140
